Reference source for all entries: patent US20250176599A1

# PROTOCOL NOTES: Sensory evaluation of aqueous solution IV containing 1,5-octadien-3-one 100 ppt: off-flavor intensity and masking component intensity
# EXPERIMENTAL CONTEXT: 10 ppm added; aqueous solution IV, 1,5-octadien-3-one 100 ppt; average score 0-4
EXPERIMENTAL READOUT: Off-Flavor Intensity (points)
The reply should be a number in points, with the unit left off.

What the record says about CC(=O)/C=C/C1C(C)=CCCC1(C)C (stereo not shown) : Off-Flavor Intensity is 0.1

What the record says about "C=C(C)[C@@H]1CCC2=CC(=O)C[C@@H](C)[C@]2(C)C1" : Off-Flavor Intensity is 0.9

What the record says about "CCCCCCCC/C=C\CCCCCCCC(=O)O" : Off-Flavor Intensity is 1.5

What the record says about "CCCC(=O)C(C)=O" : Off-Flavor Intensity is 0.8
